The origin of these recorded values is patent US20220259315A1.

Molecular target: T1, monkey Fc-PD-1 protein (monkey, UniProt Q15116 25-170 (human entry))
T1 construct: not shown: Fc part not described
T1 chain: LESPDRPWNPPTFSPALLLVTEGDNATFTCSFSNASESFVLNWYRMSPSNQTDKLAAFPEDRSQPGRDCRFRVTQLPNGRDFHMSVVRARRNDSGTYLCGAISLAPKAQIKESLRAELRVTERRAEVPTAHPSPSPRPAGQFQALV
Assay: Biacore, Fab, monkey Fc-PD-1
I'd appreciate it if you could supply Kd values for the items below.
Report only the number, with the unit nM understood.

Query: May I ask what Kd has been recorded for A35818 (Fab, V domains shown, humanized Fab clone of 137F2; also called humanized antibody A35818) VH: QMQLVQSGPEVKKPGTSVKVSCKASGFTFTNYWIGWVRQAPGQALEWMGDIYPGGGYTNYNEKFKGRVTITADKSTSTAYMELSSLRSEDTAVYYCARGYDFVLDRWGQGTTVTVSS VL: DVVMTQSPAFLSVTPGEKVTITCKSSQSLFNSETQKNYLAWYQQKPGQAPRLLIYWASTRESGVPSRFSGSGSGTDFTFTISSLEAEDAATYYCKQSYTLRTFGGGTKLEIK ?
Result: 1.27

Query: May I ask what Kd has been recorded for A35797 (Fab, V domains shown, humanized Fab clone of 137F2; also called humanized antibody A35797) VH: EVQLVQSGAEVKKHGESLKISCKGSGYSFTNYWIGWVRQATGQGLEWMGDIYPGGGYTNYNEKFKGRVTITADKSTSTAYMELSSLRSEDTAVYYCARGYDFVLDRWGQGTTVTVSS VL: DIQMTQSPSSLSASVGDRVTITCKSSQSLFNSETQKNYLAWYQQKPGQPPKLLIYWASTRESGVPSRFSGSGSGTDFTLTISSLQPEDFATYYCKQSYTLRTFGGGTKLEIK ?
Result: 1.13

Query: May I ask what Kd has been recorded for A35793 (Fab, V domains shown, humanized Fab clone of 137F2; also called humanized antibody A35793) VH: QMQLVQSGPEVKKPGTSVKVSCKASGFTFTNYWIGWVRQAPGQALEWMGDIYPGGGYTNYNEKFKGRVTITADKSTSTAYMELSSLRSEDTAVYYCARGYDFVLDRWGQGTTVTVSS VL: DVVMTQSPAFLSVTPGEKVTITCKSSQSLFNSETQKNYLAWYQQKPGQPPKLLIYWASTRESGVPSRFSGSGSGTDFTFTISSLEAEDAATYYCKQSYTLRTFGGGTKLEIK ?
Result: 1.13
